# target-or-system: CCR2 (Homo sapiens, UniProt P41597)
# Construct: (leukophoresis pack); host or cells: human peripheral blood mononuclear cells (PBMCs) from a normal human leukophoresis pack
# Sequence (P41597 whole entry): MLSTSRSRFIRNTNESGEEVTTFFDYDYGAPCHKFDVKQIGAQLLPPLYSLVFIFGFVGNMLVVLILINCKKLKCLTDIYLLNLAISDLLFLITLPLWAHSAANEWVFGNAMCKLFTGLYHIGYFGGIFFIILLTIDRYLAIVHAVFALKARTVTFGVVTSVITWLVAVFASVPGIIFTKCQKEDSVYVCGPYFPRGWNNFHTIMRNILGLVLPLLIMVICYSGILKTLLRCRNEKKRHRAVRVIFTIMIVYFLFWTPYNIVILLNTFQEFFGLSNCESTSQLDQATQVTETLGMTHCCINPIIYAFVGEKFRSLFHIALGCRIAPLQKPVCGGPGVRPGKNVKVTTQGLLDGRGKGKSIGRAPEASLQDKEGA
# assay-protocol: hCCR2 (125-I hMCP-1) small molecule binding assay on human PBMCs
# measurement-conditions: 125I-MCP-1, human PBMCs, 30 min preincubation; read-out: IC50 (nM) 30 min preinc
Labelling field: enter class 1 if recorded IC50 is less than 50 nM. Enter class 0 if it equals or exceeds that cut-off.

IN: Given "CO[C@@H]1COCC[C@@H]1N[C@@H]1C=C[C@@](C(=O)N2C[C@@H]3C[C@H]2CN3c2cccc(C(F)(F)F)n2)(C(C)C)C1" , is recorded IC50 strictly lower than 50 nM?
OUT: class 0

IN: Try "CO[C@@H]1COCC[C@@H]1N[C@@H]1CC[C@@](C(=O)N2C[C@@H]3C[C@H]2CN3c2ccnc(C(F)(F)F)c2)(C(C)(C)O)C1" next.
OUT: class 1

IN: Try "CO[C@@H]1COCC[C@@H]1N[C@@H]1CC[C@](CC(F)(F)F)(C(=O)N2C[C@@H]3C[C@H]2CN3c2ccnc(C(F)(F)F)n2)C1" next.
OUT: class 0

IN: Try CO[C@@H]1COCC[C@@H]1N[C@@H]1CC[C@@](C(=O)N2C[C@@H]3C(F)[C@H]2CN3C(=O)OC(C)(C)C)(C(C)C)C1 (stereo partly drawn) next.
OUT: class 1

IN: Try "CO[C@@H]1COCC[C@@H]1N[C@@H]1CC[C@@](C(=O)N2C[C@@H]3C[C@H]2CN3c2cccc(C(F)(F)F)n2)(C2(O)CCC2)C1" next.
OUT: class 1

API: the following record is the query input.
IN: Given "CO[C@@H]1COCC[C@@H]1N[C@@H]1C=C[C@@](C(=O)N2C[C@@H]3C[C@H]2CN3c2cncc(C(F)(F)F)n2)(C(C)C)C1" , is recorded IC50 strictly lower than 50 nM?
OUT: class 1
